Test system: HCT-116
Test: NCI tumour cell line growth inhibition, 48 h
The source made the active and inactive calls. Cut-off read from the data, not from the text of the source: active = GI50 up to about 1.1 µM and inactive = higher.
Outcome codes: class 1 (active), class 0 (inactive)

compound: CC(=O)NC1C(OCc2ccccc2)OC(COC(=O)CCCCCCCCCCNC(=O)c2cccc3c(=O)c4ccccc4[nH]c23)C(O)C1OC(C)C(=O)NC(C)C(=O)NC(CCC(N)=O)C(N)=O (centres undefined)
label: class 0
--
compound: SC1=Nc2ccccc2-c2nc(-c3ccccc3)cc(-c3ccc(Br)cc3)c2C1
label: class 0
--
compound: N#C/N=C1\NCCC(=O)N1CCc1c[nH]c2ccccc12
label: class 0
--
compound: O=C1CCC23CC(C=CC=C12)n1c(=O)n(-c2ccccc2)c(=O)n13 (centres undefined)
label: class 0
--
compound: COc1ccc(OC2(c3cc(OC)ccc3OC)OC(=O)c3ccccc32)cc1 (centres undefined)
label: class 0
--
compound: COc1ccc(C(=O)CC(c2ccccc2)[C@H]2C(c3ccc(OC)cc3)=Nc3c(nc(SC)n(C)c3=O)NC2c2ccccc2)cc1 (some centres undefined)
label: class 0
--
compound: COc1ccc2nc3ccccc3c(NCCCCCN(CCCl)CCCl)c2c1
label: class 1
--
compound: CNC(=O)ON(C(C)=O)C(=O)NC [CARACEMIDE]
label: class 0
--
compound: Oc1cc2c3c(c1)c1cc4c(cc1c[n+]3CC2)OCO4
label: class 0

====

The reader will find reported GI50 values listed item by item below.
System: HT-29
Test: NCI tumour cell line growth inhibition, 48 h
Calls of active or inactive are those of the source. Cut-off read from the data, not from the text of the source: active = GI50 up to about 1.1 µM and inactive = higher.
measurementLabel: GI50

molecule: CC1(C)OC[C@H](COCOP2(=O)Oc3ccc4ccccc4c3-c3c(ccc4ccccc34)O2)O1
measurementLabel: GI50
result: 16.4 µM (inactive)
//
molecule: O=C(CN1c2ccccc2Sc2ccccc21)N1CCNCC1
measurementLabel: GI50
result: > 100 µM (inactive)
//
molecule: N#CC12CCC1C1CCCCC12N1CCSCC1 (stereo not drawn)
measurementLabel: GI50
result: > 100 µM (inactive)
//
molecule: COc1ccc(-c2c(C(C)=O)c(C)n(C3OC(COC(C)=O)C(OC(C)=O)C(OC(C)=O)C3OC(C)=O)c(=S)c2C#N)cc1 (stereo not drawn)
measurementLabel: GI50
result: > 100 µM (inactive)
//
molecule: N[C@@H]1CCN(c2c(F)cc3c(=O)c(C(=O)O)cn4c3c2Oc2cc3c(ccc5ccccc53)cc2-4)C1
measurementLabel: GI50
result: 0.585 µM (active)
//
molecule: N#CCN1c2ccccc2CCC1Cl (stereo not drawn)
measurementLabel: GI50
result: > 10 µM (inactive)
//
molecule: CC1=C2C(=CC(C)(C)[C@@H]2O)C(=O)[C@](C)(O)C12CC2
measurementLabel: GI50
result: < 0.0126 µM (active)
//
molecule: COc1cc([C@@H]2c3cc4c(cc3[C@@H](Nc3ccc(/N=C\c5ccc(C(=O)O[C@@H](C(=O)O[C@H]6C[C@@]7(O)[C@@H](OC(=O)c8ccccc8)[C@@H]8[C@]9(OC(C)=O)CO[C@@H]9C[C@H](O)[C@@]8(C)C(=O)[C@H](OC(C)=O)C(=C6C)C7(C)C)[C@@H](NC(=O)c6ccccc6)c6ccccc6)cc5)cc3)[C@H]3COC(=O)[C@H]23)OCO4)cc(OC)c1O
measurementLabel: GI50
result: 9.04 µM (inactive)
